Measured values drawn from the supplement of paper PMC10307832 for this set.

- Tested on: LXF-289
- Assay remarks: relative viability (nuclei count vs DMSO), 5 days (fraction); higher = more cells survive
- Study conditions: first compound 0.05 µM
Property measured: relative viability
Would you mind answering with just the numeric figure?

>>> meas_value("Nc1ccn([C@@H]2O[C@H](CO)[C@@H](O)[C@@H]2O)c(=O)n1 [Cytarabine] + CS(=O)(=O)CCNCc1ccc(-c2ccc3ncnc(Nc4ccc(OCc5cccc(F)c5)c(Cl)c4)c3c2)o1 [Lapatinib] (partner 2 µM)")
0.809
>>> meas_value("Nc1ccn([C@@H]2O[C@H](CO)[C@@H](O)[C@@H]2O)c(=O)n1 [Cytarabine] + COc1cccc2cc(-c3nc([C@H]4CC[C@H](C(=O)O)CC4)n4ncnc(N)c34)[nH]c12 [OSI-027] (partner 0.5 µM)")
0.419

Attention now shifts to the item below.
Measured relative viability of Nc1ccn([C@@H]2O[C@H](CO)[C@@H](O)[C@@H]2O)c(=O)n1 [Cytarabine] + CCNC(=O)c1noc(-c2cc(C(C)C)c(O)cc2O)c1-c1ccc(CN2CCOCC2)cc1 [Luminespib] (partner 0.01 µM) : 0.43

###

- Tested on: NCI-H650
- Assay remarks: relative viability (nuclei count vs DMSO), 5 days (fraction); higher = more cells survive
- Study conditions: first compound 0.0002 µM
Property measured: relative viability
Would you mind answering with just the numeric figure?

>>> meas_value("CC(=O)O[C@@]12CO[C@@H]1C[C@H](O)[C@@]1(C)C(=O)[C@H](O)C3=C(C)[C@@H](OC(=O)[C@H](O)[C@@H](NC(=O)OC(C)(C)C)c4ccccc4)C[C@@](O)([C@@H](OC(=O)c4ccccc4)[C@H]21)C3(C)C [Docetaxel] + C[C@@H](Oc1cc(-c2cnn(C3CCNCC3)c2)cnc1N)c1c(Cl)ccc(F)c1Cl [Crizotinib] (partner 1 µM)")
0.504
>>> meas_value("CC(=O)O[C@@]12CO[C@@H]1C[C@H](O)[C@@]1(C)C(=O)[C@H](O)C3=C(C)[C@@H](OC(=O)[C@H](O)[C@@H](NC(=O)OC(C)(C)C)c4ccccc4)C[C@@](O)([C@@H](OC(=O)c4ccccc4)[C@H]21)C3(C)C [Docetaxel] + CC(=O)c1c(C)c2cnc(Nc3ccc(N4CCNCC4)cn3)nc2n(C2CCCC2)c1=O [Palbociclib] (partner 0.5 µM)")
0.34

Attention now shifts to the item below.
Bench note, NCI-H650: CC(=O)O[C@@]12CO[C@@H]1C[C@H](O)[C@@]1(C)C(=O)[C@H](O)C3=C(C)[C@@H](OC(=O)[C@H](O)[C@@H](NC(=O)OC(C)(C)C)c4ccccc4)C[C@@](O)([C@@H](OC(=O)c4ccccc4)[C@H]21)C3(C)C [Docetaxel] + NC(=O)Nc1cc(-c2cccc(F)c2)sc1C(=O)N[C@H]1CCCNC1 [AZD7762] (partner 0.2 µM) , relative viability reads 0.946

###

# reported relative viability; entries follow
- Tested on: NCI-H596
- Assay remarks: relative viability (nuclei count vs DMSO), 5 days (fraction); higher = more cells survive
- Study conditions: first compound 0.005 µM
Would you mind answering with just the numeric figure?

>>> meas_value("COc1cc2nccc(Oc3ccc(NC(=O)Nc4cc(C)on4)c(Cl)c3)c2cc1OC [Tivozanib] + CC(=O)Nc1cccc(-n2c(=O)n(C3CC3)c(=O)c3c(Nc4ccc(I)cc4F)n(C)c(=O)c(C)c32)c1 [Trametinib] (partner 0.02 µM)")
0.653
>>> meas_value("COc1cc2nccc(Oc3ccc(NC(=O)Nc4cc(C)on4)c(Cl)c3)c2cc1OC [Tivozanib] + Cc1nc(Nc2ncc(C(=O)Nc3c(C)cccc3Cl)s2)cc(N2CCN(CCO)CC2)n1 [Dasatinib] (partner 0.075 µM)")
0.55
>>> meas_value("COc1cc2nccc(Oc3ccc(NC(=O)Nc4cc(C)on4)c(Cl)c3)c2cc1OC [Tivozanib] + Nc1nc2[nH]cc(CCc3ccc(C(=O)N[C@@H](CCC(=O)O)C(=O)O)cc3)c2c(=O)[nH]1 [Pemetrexed] (partner 0.2 µM)")
0.492

Bench note, NCI-H596: Nc1ccn([C@@H]2O[C@H](CO)[C@@H](O)[C@@H]2O)c(=O)n1 [Cytarabine] + Cc1nc(Nc2ncc(C(=O)Nc3c(C)cccc3Cl)s2)cc(N2CCN(CCO)CC2)n1 [Dasatinib] (partner 0.075 µM) , relative viability reads 0.606

Bench note, NCI-H596: COc1cc2nccc(Oc3ccc(NC(=O)Nc4cc(C)on4)c(Cl)c3)c2cc1OC [Tivozanib] + CS(=O)(=O)N1CCN(Cc2cc3nc(-c4cccc5[nH]ncc45)nc(N4CCOCC4)c3s2)CC1 [Pictilisib] (partner 1 µM) , relative viability reads 0.28

Bench note, NCI-H596: Nc1ccn([C@@H]2O[C@H](CO)[C@@H](O)[C@@H]2O)c(=O)n1 [Cytarabine] + NC(=O)Nc1cc(-c2cccc(F)c2)sc1C(=O)N[C@H]1CCCNC1 [AZD7762] (partner 0.2 µM) , relative viability reads 1

Bench note, NCI-H596: Nc1ccn([C@@H]2O[C@H](CO)[C@@H](O)[C@@H]2O)c(=O)n1 [Cytarabine] + C[C@]1(O)C[C@@H](c2nc(-c3ccc4ccc(-c5ccccc5)nc4c3)c3c(N)nccn32)C1 [Linsitinib] (partner 1 µM) , relative viability reads 1.03

Bench note, NCI-H596: Nc1ccn([C@@H]2O[C@H](CO)[C@@H](O)[C@@H]2O)c(=O)n1 [Cytarabine] + CS(=O)(=O)CCNCc1ccc(-c2ccc3ncnc(Nc4ccc(OCc5cccc(F)c5)c(Cl)c4)c3c2)o1 [Lapatinib] (partner 2 µM) , relative viability reads 1.03

Bench note, NCI-H596: Nc1ccn([C@@H]2O[C@H](CO)[C@@H](O)[C@@H]2O)c(=O)n1 [Cytarabine] + Cc1nc(NC(=O)N2CCC[C@H]2C(N)=O)sc1-c1ccnc(C(C)(C)C(F)(F)F)c1 [Alpelisib] (partner 2 µM) , relative viability reads 0.5

Bench note, NCI-H596: Nc1ccn([C@@H]2O[C@H](CO)[C@@H](O)[C@@H]2O)c(=O)n1 [Cytarabine] + CC(C)C[C@H](NC(=O)[C@H](Cc1ccccc1)NC(=O)c1cnccn1)B(O)O [Bortezomib] (partner 0.002 µM) , relative viability reads 0.788

Bench note, NCI-H596: Nc1ccn([C@@H]2O[C@H](CO)[C@@H](O)[C@@H]2O)c(=O)n1 [Cytarabine] + N=C(N)NC(=N)NCCc1ccccc1 [Phenformin] (partner 250 µM) , relative viability reads 0.801

Bench note, NCI-H596: COc1cc2nccc(Oc3ccc(NC(=O)Nc4cc(C)on4)c(Cl)c3)c2cc1OC [Tivozanib] + COc1cc2c(Oc3ccc(NC(=O)C4(C(=O)Nc5ccc(F)cc5)CC4)cc3F)ccnc2cc1OCCCN1CCOCC1 [Foretinib] (partner 0.25 µM) , relative viability reads 0.697

Bench note, NCI-H596: COc1cc2nccc(Oc3ccc(NC(=O)Nc4cc(C)on4)c(Cl)c3)c2cc1OC [Tivozanib] + Cc1cc(Nc2cc(N3CCN(C)CC3)nc(Sc3ccc(NC(=O)C4CC4)cc3)n2)n[nH]1 [Tozasertib] (partner 0.1 µM) , relative viability reads 0.873
